All figures here come from patent US20210196796A1.

The reader will find reported 3F8 Ortho Proliferation Signal 1:2 values listed item by item below.
Molecular target: T1, orthogonal hCD122 receptor (hoRb), hCD122 with H133D and Y134F (human, UniProt P14784 27-550)
T1 sequence: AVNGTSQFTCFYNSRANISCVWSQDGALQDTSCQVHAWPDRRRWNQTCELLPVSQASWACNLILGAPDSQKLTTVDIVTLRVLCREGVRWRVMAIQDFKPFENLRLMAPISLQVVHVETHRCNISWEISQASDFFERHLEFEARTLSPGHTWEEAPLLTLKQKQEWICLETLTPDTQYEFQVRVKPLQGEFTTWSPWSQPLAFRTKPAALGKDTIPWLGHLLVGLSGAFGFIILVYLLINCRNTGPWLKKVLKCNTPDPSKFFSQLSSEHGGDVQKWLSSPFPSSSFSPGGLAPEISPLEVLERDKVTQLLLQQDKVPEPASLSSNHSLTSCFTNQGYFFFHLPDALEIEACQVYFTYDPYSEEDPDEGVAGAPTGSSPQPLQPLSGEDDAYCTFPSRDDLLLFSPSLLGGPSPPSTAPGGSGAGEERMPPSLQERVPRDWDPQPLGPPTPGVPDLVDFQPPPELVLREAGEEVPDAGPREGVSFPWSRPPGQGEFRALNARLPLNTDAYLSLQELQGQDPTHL
Test: cell-based or functional assay
endpoint_name: 3F8 Ortho Proliferation Signal 1:2 (cts/min)

binder	value_measured
SQVLDA (ligand) APTSSSTKKTQLQLSQLLVLLDAILNGINNYKNPKLTRMLTFKFYMPKKATELKHLQCLEEELKPLEEVLNLAQSKNFHLRPRDLISNINVIVLELKGSETTFMCEYADETATIVEFLNRWITFCQSIISTLT	33400
SQVLNA (ligand) APTSSSTKKTQLQLSQLLVLLNAILNGINNYKNPKLTRMLTFKFYMPKKATELKHLQCLEEELKPLEEVLNLAQSKNFHLRPRDLISNINVIVLELKGSETTFMCEYADETATIVEFLNRWITFCQSIISTLT	32600
Q126R, SQVLKA (ligand) APTSSSTKKTQLQLSQLLVLLKAILNGINNYKNPKLTRMLTFKFYMPKKATELKHLQCLEEELKPLEEVLNLAQSKNFHLRPRDLISNINVIVLELKGSETTFMCEYADETATIVEFLNRWITFCRSIISTLT	22400
I92F, SQVLKA (ligand) APTSSSTKKTQLQLSQLLVLLKAILNGINNYKNPKLTRMLTFKFYMPKKATELKHLQCLEEELKPLEEVLNLAQSKNFHLRPRDLISNINVFVLELKGSETTFMCEYADETATIVEFLNRWITFCQSIISTLT	29700
